Ref: ChEMBL document CHEMBL4400534

- Tested on: Human immunodeficiency virus 1
- PROTOCOL_DETAILS: Antiviral activity against HIV-1 infected in human P4R5 cells assessed as reduction in viral replication preincubated for 24 hrs followed by viral infection and measured after 48 hrs by MAGI assay
- Format: functional, organism-based
Parameter: EC50. Scope: all listed entries.

COC(=O)c1ccc(-c2ccc(C(=O)c3cc(=O)n(O)c(=O)[nH]3)cc2)cc1: > 20 µM
O=C(c1ccc(C(F)(F)F)cc1)c1cc(=O)n(O)c(=O)[nH]1: > 20 µM
Cc1cc(-c2ccc(C(=O)c3cc(=O)n(O)c(=O)[nH]3)cc2)ccc1F: > 20 µM
Cc1cc(C)cc(-c2ccc(C(=O)c3cc(=O)n(O)c(=O)[nH]3)cc2)c1: > 20 µM
Cc1cc(C)cc(C(=O)c2cc(=O)n(O)c(=O)[nH]2)c1: 9.5 µM

Request: Can you look up the measured EC50 of `O=C(c1ccc(F)cc1)c1cc(=O)n(O)c(=O)[nH]1` for me?
Result: > 20 µM

Request: Can you look up the measured EC50 of CCOCn1c(C(C#N)c2cc(C)cc(C)c2)cc(=O)n(O)c1=O (stereo unspecified) for me?
Result: > 20 µM

Request: Can you look up the measured EC50 of `O=C(c1ccc(-c2ccc(F)cc2)cc1)c1cc(=O)n(O)c(=O)[nH]1` for me?
Result: 9 µM

Request: Can you look up the measured EC50 of `Cc1ccc(-c2ccc(C(=O)c3cc(=O)n(O)c(=O)[nH]3)cc2)cc1` for me?
Result: 4.7 µM
